assay: Ratio of drug level in brain against plasma in CD rat at 1 mg/kg, iv; assay type: ADME, organism-based; design: dose 1 mg/kg, route intravenous; settings: brain and plasma
valueKind: Kp
Just the number, please.

Given item CN1CCC(Cn2c3c(c4ccccc42)C(=O)C(N2CCN(C)CC2)C[C@H]3Oc2ccc(Cl)cc2)CC1 (stereo partly specified) , the value recorded as its Kp is 0.8

====

Biological target: Neuropeptide Y receptor type 1 (Homo sapiens, UniProt P25929)
Sequence (P25929 whole entry): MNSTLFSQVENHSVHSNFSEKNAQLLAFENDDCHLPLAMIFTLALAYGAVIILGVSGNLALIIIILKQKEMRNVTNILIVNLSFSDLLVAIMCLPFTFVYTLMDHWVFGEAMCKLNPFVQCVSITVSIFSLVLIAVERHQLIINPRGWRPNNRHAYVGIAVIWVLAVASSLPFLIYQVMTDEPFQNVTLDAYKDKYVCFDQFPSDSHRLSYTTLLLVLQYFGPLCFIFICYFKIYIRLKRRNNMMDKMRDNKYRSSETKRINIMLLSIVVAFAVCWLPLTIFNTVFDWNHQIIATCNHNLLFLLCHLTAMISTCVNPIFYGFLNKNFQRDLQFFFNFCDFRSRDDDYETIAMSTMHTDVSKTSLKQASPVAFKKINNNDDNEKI
Assay: Displacement of [125I]PYY from human recombinant NPY1 receptor expressed in CHO cells
valueKind: pIC50
A value of pIC50 is the negative decimal logarithm of a concentration given in moles per litre.

Worked cases, answers included:
{"compound": "CN1CCN(C2C[C@@H](Oc3ccc(Cl)cc3)c3c(c4ccccc4n3C[C@H]3CCN(C)C[C@@H]3F)C2=O)CC1 (some centres undefined)", "testedSystem": "Neuropeptide Y receptor type 1 (Homo sapiens, UniProt P25929)", "valueKind": "pIC50", "resultValue": 6.36}
{"compound": "CC1CCN([C@H]2C[C@@H](Oc3ccc(Cl)cc3)c3c(c4ccccc4n3CC3CCNCC3)C2=O)CC1", "testedSystem": "Neuropeptide Y receptor type 1 (Homo sapiens, UniProt P25929)", "valueKind": "pIC50", "resultValue": 7.65}
{"compound": "CN1CCC(Cn2c3c(c4ccccc42)C(=O)C(N2CCN(C)CC2)C[C@H]3Oc2ccc(Cl)cc2)CC1 (some centres undefined)", "testedSystem": "Neuropeptide Y receptor type 1 (Homo sapiens, UniProt P25929)", "valueKind": "pIC50", "resultValue": 7.47}

Could you now look at the following compound, please?
Tested on Neuropeptide Y receptor type 1 (Homo sapiens, UniProt P25929), the item CC1(F)CCN(C2C[C@@H](Oc3ccc(Cl)cc3)c3c(c4ccccc4n3CC3CCNCC3)C2=O)CC1 (some centres undefined) showed pIC50 equal to 7.00

====

target: Neuropeptide Y receptor type 1 (Homo sapiens, UniProt P25929); assay: Displacement of [125I]PYY from human recombinant NPY1 receptor expressed in CHO cells
IC50 for assorted compounds
Numeric only. Scale: nM

Given item CN1CCN(C2C[C@@H](Oc3ccc(Cl)cc3)c3c(c4ccccc4n3CC3CCNCC3)C2=O)CC1=O (some centres not stated) , the value recorded as its IC50 is 3890

Given item O=C1c2c(n(CCCN3CCCCC3)c3ccccc23)[C@H](Oc2ccc(Cl)cc2)CC1N1CCCCC1 (some centres not stated) , the value recorded as its IC50 is 3390

Given item `CC1CCN([C@@H]2C[C@@H](Oc3ccc(Cl)cc3)c3c(c4ccccc4n3CC3CCNCC3)C2=O)CC1` , the value recorded as its IC50 is 97.7

Given item CN1CCN(C2C[C@@H](Oc3ccc(Cl)cc3)c3c(c4ccccc4n3C[C@@H]3CCNC[C@@H]3F)C2=O)CC1 (some centres not stated) , the value recorded as its IC50 is 186

Given item CN1CCN(C2C[C@@H](Oc3ccc(Cl)cc3)c3c(c4ccccc4n3C)C2=O)CC1 (some centres not stated) , the value recorded as its IC50 is 25100
